Where these numbers come from: the supplement of paper PMC10065799

- Tgt: c-Src SH2
- Assay explanation: SH2 binding enrichment of the phosphorylated peptide, bacterial display (enrichment ratio); higher = better substrate or ligand; peptides without Tyr show the background;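 further: peptide library displayed on the E. coli surface as eCPX fusions, selected cells deep-sequenced, score is each peptide's frequency after selection divided by its frequency in the input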
Listed sequences paired with reported SH2 binding enrichment

Examples from the recorded data:
SARSAYQEAMD [SFN_Y151] : 1.06
MGSFNYLGFAW [SPTLC2_Y178_R183W_YF] : 0.385
VDGSLYETHPQ [HK1_Y417_K418E] : 0.503

Measured SH2 binding enrichment, RKGGSYTQAAS [HLA-A_Y344] : 1.06

Measured SH2 binding enrichment of GFEEAYSVSKK [PAFAH1B1_Y28_F31S_YF] : 0.505

// SH2 binding enrichment value for GGGGGYNCSSG [FUS_Y232_R234C] : 0.574

Data point: FDGGCYEQLFV [MC4R_Y41_S36Y_YF] ; SH2 binding enrichment = 0.485
